# Target Under Test: Histone-lysine N-methyltransferase NSD2 (Homo sapiens) (UniProt O96028)
# Sequence (whole entry): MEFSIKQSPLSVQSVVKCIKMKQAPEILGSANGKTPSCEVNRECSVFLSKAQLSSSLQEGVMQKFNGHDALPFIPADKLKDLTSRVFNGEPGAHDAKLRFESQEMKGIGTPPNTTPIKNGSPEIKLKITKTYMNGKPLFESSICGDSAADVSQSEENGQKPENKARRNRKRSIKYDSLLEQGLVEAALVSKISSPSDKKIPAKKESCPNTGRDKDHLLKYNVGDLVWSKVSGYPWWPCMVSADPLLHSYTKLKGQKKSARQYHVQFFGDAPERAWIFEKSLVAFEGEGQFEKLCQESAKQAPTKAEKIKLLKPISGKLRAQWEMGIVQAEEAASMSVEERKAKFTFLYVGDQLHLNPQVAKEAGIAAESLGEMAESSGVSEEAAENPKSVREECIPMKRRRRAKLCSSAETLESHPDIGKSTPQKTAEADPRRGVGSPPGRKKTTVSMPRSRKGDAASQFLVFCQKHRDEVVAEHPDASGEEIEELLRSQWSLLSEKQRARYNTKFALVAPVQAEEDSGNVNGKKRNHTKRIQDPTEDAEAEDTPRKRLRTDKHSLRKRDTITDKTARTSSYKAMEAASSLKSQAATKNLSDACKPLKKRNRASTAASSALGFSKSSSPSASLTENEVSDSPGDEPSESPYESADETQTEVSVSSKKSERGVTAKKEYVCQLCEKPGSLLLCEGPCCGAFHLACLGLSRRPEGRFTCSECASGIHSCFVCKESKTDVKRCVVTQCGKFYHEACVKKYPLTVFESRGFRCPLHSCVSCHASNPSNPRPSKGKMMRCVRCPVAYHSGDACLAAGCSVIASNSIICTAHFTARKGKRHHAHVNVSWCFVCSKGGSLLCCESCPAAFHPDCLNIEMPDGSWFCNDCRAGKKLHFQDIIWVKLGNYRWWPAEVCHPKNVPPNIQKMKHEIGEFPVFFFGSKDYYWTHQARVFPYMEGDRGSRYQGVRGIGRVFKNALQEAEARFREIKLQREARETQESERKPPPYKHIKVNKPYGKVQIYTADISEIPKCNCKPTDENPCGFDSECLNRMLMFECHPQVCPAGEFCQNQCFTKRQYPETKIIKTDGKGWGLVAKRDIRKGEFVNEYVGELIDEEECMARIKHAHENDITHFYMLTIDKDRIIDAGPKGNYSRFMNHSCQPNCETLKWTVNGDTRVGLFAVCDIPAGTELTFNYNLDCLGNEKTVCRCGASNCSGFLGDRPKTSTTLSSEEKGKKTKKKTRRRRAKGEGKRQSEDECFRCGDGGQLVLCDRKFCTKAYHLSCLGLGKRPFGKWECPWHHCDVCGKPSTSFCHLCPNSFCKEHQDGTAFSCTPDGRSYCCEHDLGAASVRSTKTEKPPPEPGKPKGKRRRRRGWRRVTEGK
# Protocol Summary: Inhibition of NSD2 (unknown origin) using biotin-labeled histone substrate assessed as residual activity at 50 uM in presence of [3H-Me]SAM by scintillation proximity assay relative to control
# Activity values compiled below
Express your answer in %, writing the number without its unit.

| Molecule | Meas Value |
| --- | --- |
| CN1CC[C@H]2CN(C(=O)c3cccc(Br)c3)C[C@H]21 | 102 |
| O=C(c1cccc(Br)c1)N1C[C@@H]2CCN[C@@H]2C1 | 94 |
| CN1CCCC12CCCN(C(=O)c1cccc(Br)c1)C2 (centres undefined) | 99 |
| CN1CCC2(CC1)CCN(C(=O)c1cccc(Br)c1)CC2 | 99 |
| CN1CCCCC12CCN(C(=O)c1cccc(Br)c1)CC2 | 103 |
| CN1CCC2(CCCN(C(=O)c3cccc(Br)c3)C2)C1 (centres undefined) | 105 |
| O=C(c1cccc(Br)c1)N1CCCC2(CCNCC2)C1 | 104 |
| CN1CCCC12CCN(C(=O)c1cccc(Br)c1)CC2 | 99 |

Query string: Given O=C(c1cccc(Br)c1)N1C[C@@H]2CC3CCCN3[C@@H]2C1 (some centres undefined) , report its Activity on Histone-lysine N-methyltransferase NSD2 (Homo sapiens) (UniProt O96028).
Result string: 101

Values compiled from ChEMBL document CHEMBL4477270.
